Subject of test: Glutamate receptor ionotropic, NMDA 2B (Homo sapiens, UniProt Q05586+Q13224)
Sequence (Q13224 whole entry, one chain of several): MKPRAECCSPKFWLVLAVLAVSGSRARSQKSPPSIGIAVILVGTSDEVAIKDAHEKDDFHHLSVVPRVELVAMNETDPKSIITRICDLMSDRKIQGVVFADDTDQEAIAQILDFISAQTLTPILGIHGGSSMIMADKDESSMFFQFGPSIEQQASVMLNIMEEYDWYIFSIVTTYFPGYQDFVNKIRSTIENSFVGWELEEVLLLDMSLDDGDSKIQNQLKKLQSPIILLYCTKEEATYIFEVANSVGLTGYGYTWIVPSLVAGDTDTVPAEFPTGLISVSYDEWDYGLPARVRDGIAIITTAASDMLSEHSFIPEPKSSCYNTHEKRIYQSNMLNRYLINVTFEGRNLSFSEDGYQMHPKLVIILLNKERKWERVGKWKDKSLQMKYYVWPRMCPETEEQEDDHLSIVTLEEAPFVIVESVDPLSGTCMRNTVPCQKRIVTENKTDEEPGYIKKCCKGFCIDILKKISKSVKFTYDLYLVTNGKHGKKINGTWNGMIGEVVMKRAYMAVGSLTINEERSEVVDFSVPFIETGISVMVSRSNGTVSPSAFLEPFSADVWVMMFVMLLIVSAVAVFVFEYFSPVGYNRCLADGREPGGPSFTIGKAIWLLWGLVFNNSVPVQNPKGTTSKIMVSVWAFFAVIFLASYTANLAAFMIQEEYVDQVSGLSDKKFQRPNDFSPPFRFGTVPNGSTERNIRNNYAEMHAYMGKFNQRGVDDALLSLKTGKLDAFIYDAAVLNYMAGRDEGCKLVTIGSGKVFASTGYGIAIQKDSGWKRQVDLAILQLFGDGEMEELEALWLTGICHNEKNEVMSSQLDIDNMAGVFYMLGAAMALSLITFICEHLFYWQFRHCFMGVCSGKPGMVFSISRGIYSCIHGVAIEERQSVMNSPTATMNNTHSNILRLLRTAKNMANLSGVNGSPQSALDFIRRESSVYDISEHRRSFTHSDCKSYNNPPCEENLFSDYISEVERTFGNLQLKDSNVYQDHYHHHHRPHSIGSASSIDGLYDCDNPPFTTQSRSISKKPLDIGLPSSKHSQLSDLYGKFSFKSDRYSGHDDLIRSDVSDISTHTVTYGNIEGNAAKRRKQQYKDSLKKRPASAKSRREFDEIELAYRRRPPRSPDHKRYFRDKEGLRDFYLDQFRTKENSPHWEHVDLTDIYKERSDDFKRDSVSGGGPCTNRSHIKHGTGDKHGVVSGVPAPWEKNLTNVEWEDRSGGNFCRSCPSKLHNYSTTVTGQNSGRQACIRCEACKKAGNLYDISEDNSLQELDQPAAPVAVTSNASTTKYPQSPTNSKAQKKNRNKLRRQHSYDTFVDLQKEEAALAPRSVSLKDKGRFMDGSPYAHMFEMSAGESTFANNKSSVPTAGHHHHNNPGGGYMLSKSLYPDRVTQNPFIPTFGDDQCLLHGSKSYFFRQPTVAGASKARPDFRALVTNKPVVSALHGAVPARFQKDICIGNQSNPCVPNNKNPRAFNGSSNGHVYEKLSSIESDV
Assay name: Antagonist activity at NMDA receptor NR2B subunit (unknown origin)
Reported property: IC50 (µM)
Answers are plain numbers, in µM.

Any idea what IC50 came out for Cc1nccn1Cc1cc(-c2ccc(F)c(C(F)F)c2)cnn1 [EVT-101 FREE BASE] on Glutamate receptor ionotropic, NMDA 2B (Homo sapiens, UniProt Q05586+Q13224)?
0.017

====

Tested on: SH-SY5Y
Assay name: Neuroprotective activity against human SH-SY5Y cells assessed as effect on NMDA mediated cell damage at 5 uM by MTT assay relative to control
Assay type: functional
Would you kindly list Activity for each of these compounds?
Numbers only, in %.

Below are worked cases with known answers.
{"columns": ["Compound structure", "Subject of test", "Activity [%]"],
 "data": [
  ["COc1ccc(C(=O)NNC(=O)[C@@H]2CCC3=Nc4ccc(Br)cc4CN32)cc1", "SH-SY5Y", 19.77],
  ["Nc1ccc(C(=O)NNC(=O)[C@@H]2CCC3=Nc4ccc(Cl)cc4CN32)cc1", "SH-SY5Y", 20.43],
  ["O=C(NNC(=O)[C@@H]1CCC2=Nc3ccc(Cl)cc3CN21)c1ccccc1", "SH-SY5Y", 19.76]
]}

Okay, now this compound:
Form: Entry = O=C(NNC(=O)[C@@H]1CCC2=Nc3ccc(Br)cc3CN21)c1ccc(F)cc1 | System = SH-SY5Y | Activity = ____
19.48

Origin of measurements: ChEMBL document CHEMBL5252602
